Source listed as patent US4510140A.

- Tested on: bronchospasm induced by histamine
- method: Antibronchospastic activity (Konzett and Rossler): inhibition of bronchospasm induced in anaesthetized guinea-pig by histamine
- Format: in vivo
- test.settings: Cavia porcellus, iv, 1 min; anaesthetized guinea-pig, i.v., histamine 0.5-2.5 μg/Kg i.v., one minute after injection of the drug; read-out: ED75 (inhibition of histamine-induced bronchospasm)
metric.name: ED75 (µmol/kg)
Note: unit µmol/kg is implicit; provide only the numeric part.

Sample records with ED75:
molecule: CC(=O)Nc1ccc(NC(=O)CCN2CCN(c3ccccn3)CC2)cc1 [compound 27]
unit.text: µmol/kg
numeric.value: 0.97
//
molecule: O=C(CCN1CCN(c2ccccn2)CC1)Nc1ccc(O)cc1 [compound 20]
unit.text: µmol/kg
numeric.value: 0.49
//
molecule: CNC(=O)Nc1ccc(NC(=O)CCN2CCN(c3ccccn3)CC2)cc1 [compound 28]
unit.text: µmol/kg
numeric.value: 0.29

Now take the following molecule into account.
Request - read-out ED75 | tested on bronchospasm induced by histamine | molecule CCOC(=O)C(=O)Nc1ccc(NC(=O)CCN2CCN(c3ccccn3)CC2)cc1 [compound 12]
0.23
